Where these numbers come from: patent US6051712A

Target: human renin (Homo sapiens)
Sequence (P00797 67-406): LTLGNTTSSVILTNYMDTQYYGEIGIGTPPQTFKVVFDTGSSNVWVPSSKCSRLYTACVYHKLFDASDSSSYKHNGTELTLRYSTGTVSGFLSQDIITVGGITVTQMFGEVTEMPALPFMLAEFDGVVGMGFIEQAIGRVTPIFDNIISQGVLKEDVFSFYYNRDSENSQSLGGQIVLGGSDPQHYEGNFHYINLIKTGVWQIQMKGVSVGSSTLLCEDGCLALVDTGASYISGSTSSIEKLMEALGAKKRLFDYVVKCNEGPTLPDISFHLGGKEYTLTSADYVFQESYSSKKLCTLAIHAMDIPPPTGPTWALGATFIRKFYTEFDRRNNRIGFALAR
Test: In vitro test with pure human renin (angiotensin I production from human tetradecapeptide renin substrate, measured by RIA)
Assay type: biochemical
Settings: pure human renin, pH 7.4, three hours at 37° C. (less 4° C.), human tetradecapeptide substrate, angiotensin I by RIA; read-out: IC50 values (concentration of the inhibitor at which the enzymatic activity is inhibited by 50%)
Reported IC50 values are given for each entry in this list.
# unit: nM | format: bare number

1) OCCCO[C@@H]1CNC[C@H](OCc2ccc3ccccc3c2)[C@H]1c1ccc(OCCCOCc2ccccc2)cc1 (racemic) [W]	2
2) c1ccc(COCCCOc2ccc([C@H]3CCNC[C@@H]3OCc3ccc4c(c3)OCCO4)cc2)cc1 (racemic) [D]	40
3) c1ccc(COCCCOc2ccc([C@H]3[C@H](CSc4ccncc4)CNC[C@@H]3OCc3ccc4ccccc4c3)cc2)cc1 (relative stereo) [EE]	0.4
4) COC[C@@H]1CNC[C@H](OCc2ccc3ccccc3c2)[C@H]1c1ccc(OCCCOCc2ccccc2)cc1 (relative stereo) [CC]	2
5) COc1cc(CO[C@H]2CNCC[C@@H]2c2cnc(OCCCCC3CCCCC3)nc2)c(OC)c2ccccc12 (relative stereo) [FF]	0.6
6) O=C(OC(Cc1ccc2ccccc2c1)[C@H]1CNCC[C@@H]1c1ccc(F)cc1)c1ccccc1 (stereo partly shown) [K]	2600
7) CN(C)Cc1ccc2ccc(CO[C@H]3CNCC[C@@H]3c3ccc(OCCCOCc4ccccc4)cc3)cc2c1 (racemic) [QQ]	2
8) c1ccc(COCCCOc2ccc([C@@H]3[C@@H](OCc4ccc5ccccc5c4)CNC[C@H]3OCCN3CCOCC3)cc2)cc1 (racemic) [Y]	3

-- ask Using the record for COc1ccccc1COCCCOc1ccc([C@H]2[C@H](O)CNC[C@@H]2OCc2cc(OC)c3ccccc3c2OC)cc1 (racemic) [ZZ] , report its IC50.
-- reply 0.03

-- ask Using the record for COC[C@@H]1CNC[C@H](OCc2ccc3ccccc3c2)[C@H]1c1ccc(COCc2ccccc2)cc1 (racemic) [J] , report its IC50.
-- reply 17

====

Reported pIC50 values are given for each entry in this list.
Biological target: UniProt P00797
Sequence (P00797 67-406): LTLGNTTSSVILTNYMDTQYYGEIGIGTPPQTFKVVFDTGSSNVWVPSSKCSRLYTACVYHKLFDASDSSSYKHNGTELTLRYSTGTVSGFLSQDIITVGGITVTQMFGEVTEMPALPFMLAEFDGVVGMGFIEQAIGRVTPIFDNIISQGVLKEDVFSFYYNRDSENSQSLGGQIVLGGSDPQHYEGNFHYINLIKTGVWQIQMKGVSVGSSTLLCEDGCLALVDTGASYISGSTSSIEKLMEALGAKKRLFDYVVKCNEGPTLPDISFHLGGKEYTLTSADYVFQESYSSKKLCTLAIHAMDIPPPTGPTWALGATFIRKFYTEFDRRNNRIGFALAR
Assay: In vitro test with pure human renin (angiotensin I production from human tetradecapeptide renin substrate, measured by RIA)
Assay type: biochemical
Structures can show the parent of a compound that is named as a salt.
Please treat pIC50 as minus the base-10 logarithm of the molar concentration.

Worked cases, pIC50 given:
1) COc1ccccc1COCCCOc1ccc([C@H]2CCNC[C@@H]2OCc2cc(OC)c3ccccc3c2OC)cc1 (relative stereo)	10.00
2) Fc1ccc([C@H]2C[C@@H]3CC[C@@H](N3)[C@@H]2OCc2cc(OCc3ccccc3)c3ccccc3c2)cc1 (racemic)	5.51
3) c1ccc(-c2noc(COc3ccc([C@H]4CCNC[C@@H]4OCc4ccc5ccccc5c4)cc3)n2)cc1 (racemic) [E, trifluoroacetate]	7.39

-- ask Using the record for c1ccc(COCCCOc2ccc([C@H]3CCNC[C@@H]3OCc3ccc4ccccc4c3)cc2)cc1 (racemic) , report its pIC50.
-- reply 8.10
